# Method Notes: chemical genetic growth profiling, strain panel (AID 1159580);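 also: tested at 20 µM; growth read once vehicle control cultures reached saturation at 30 °C; 1 = growth at the plate median or of vehicle wells; lower values mean less growth of the strain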
# Experimental Setup: S. cerevisiae deletion strains, growth OD, locus YLR342W, strain FKS1 (second series)
Screen size: about 5,500 compounds; about 2,000 (36%) were called active. Inconclusive results (about 18%) are left out. Rule as the data show it: active = normalized growth mostly below about 0.91 (no sharp cut-off); inconclusive = no clear call, values can overlap the other calls; inactive = mostly above about 0.92. The list shows a part of the results.
Hello, when you answer, please use one of the following outcomes: active, inactive

Completed entries (count: 2):
[
  {
    "Given Smiles": "COc1cccc(-c2cc(=O)c3cc(OC)ccc3o2)c1",
    "Label Value": "inactive"
  },
  {
    "Given Smiles": "O=c1c2ccccc2[se]n1-c1ccccc1",
    "Label Value": "active"
  }
]

Could you now look at the following molecule, please?
Exercise: I'd appreciate the recorded outcome for `CCC/C=C/C=C/[C@@H]1C[C@@H](O)[C@@H](O)C(=O)[C@H]1C=O` from this test.
Key: inactive

----------
# Method Notes: chemical genetic growth profiling, strain panel (AID 1159580)
# Experimental Setup: S. cerevisiae deletion strains, growth OD, locus YBL061C, strain skt5, stronger effect = lower value
Screen size: about 5,500 compounds; about 2,000 (36%) were called active. Not shown: some 18% with an inconclusive outcome. The list shows a part of the results.
Observable: normalized growth
Answer field: number only, no words.

[
  {
    "Compound": "C[C@@H]1CC[C@@]2(OC1)OC1C(O)C3C4CC[C@H]5C[C@H](O[C@@H]6O[C@H](CO)[C@H](O[C@@H]7O[C@H](CO)[C@@H](O)[C@H](O[C@@H]8OC[C@@H](O)[C@H](O)[C@H]8O)[C@H]7O[C@@H]7O[C@H](CO)[C@H](O)[C@H](O[C@@H]8O[C@H](CO)[C@@H](O)[C@H](O)[C@H]8O)[C@H]7O)[C@H](O)[C@H]6O)[C@H](O)C[C@]5(C)C4CC[C@]3(C)C1[C@@H]2C (stereo partly specified)",
    "normalized growth": 1.01
  },
  {
    "Compound": "C=C1C2CC[C@@]3(C)[C@H](c4ccoc4)OC(=O)C[C@]13O[C@H]1CC(=O)C(C)(C)[C@H](C(O)C(=O)OC)[C@@]21C (stereo partly specified)",
    "normalized growth": 0.985
  },
  {
    "Compound": "C=C1C(N)CC2CC1C2(C)C (stereo unspecified)",
    "normalized growth": 1
  },
  {
    "Compound": "Nc1ccc(C(=O)O)c(O)c1",
    "normalized growth": 0.989
  },
  {
    "Compound": "Nc1nc(N)c2nc(-c3ccccc3)c(N)nc2n1",
    "normalized growth": 1
  }
]

// next entry
Exercise: Could you share which normalized growth value was measured for `O=c1[nH]c2cc(Cl)c(Cl)cc2[nH]c1=O` ?
Key: 0.982

----------
# Method Notes: chemical genetic growth profiling, strain panel (AID 1159580);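 also: tested at 20 µM; growth read once vehicle control cultures reached saturation at 30 °C; 1 = growth at the plate median or of vehicle wells; lower values mean less growth of the strain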
# Experimental Setup: S. cerevisiae deletion strains, growth OD, locus YKL160W, strain elf1
In all, about 5,500 compounds went through this assay and about 2,000 (36%) were called active. Another 18% or so got no clear call; they are omitted. Rule as the data show it: active = normalized growth mostly below about 0.91 (no sharp cut-off); inconclusive = no clear call, values can overlap the other calls; inactive = mostly above about 0.92. Some of the results follow.
Hello, when you answer, please use one of the following outcomes: label 1 = active, label 0 = inactive

Completed entries (count: 9):
[
  {
    "Compound": "O=c1[nH]c2cc(Cl)c(Cl)cc2[nH]c1=O",
    "Label Value": "label 0"
  },
  {
    "Compound": "COc1ccc2cc3[n+](cc2c1OC)CCc1cc2c(cc1-3)OCO2",
    "Label Value": "label 0"
  },
  {
    "Compound": "O=C(O)c1nc2cc(Cl)c(Cl)cc2[nH]c1=O",
    "Label Value": "label 0"
  },
  {
    "Compound": "COC(=O)C1=C(C)NC(C)=C(C(=O)OCCN(C)Cc2ccccc2)C1c1cccc([N+](=O)[O-])c1 (stereo not given)",
    "Label Value": "label 0"
  },
  {
    "Compound": "COc1cc2c3cc1Oc1cc(ccc1O)C[C@@H]1c4c(cc(OC)c(O)c4Oc4ccc(cc4)C[C@@H]3N(C)CC2)CC[N+]1(C)C",
    "Label Value": "label 0"
  },
  {
    "Compound": "CC1=NCCc2c1[nH]c1cc(O)ccc21",
    "Label Value": "label 0"
  },
  {
    "Compound": "COC(=O)C1=C(C)NC(C)=C(C(=O)OCC(C)C)C1c1ccccc1[N+](=O)[O-] (stereo not given)",
    "Label Value": "label 1"
  },
  {
    "Compound": "COCCOC(=O)C1=C(C)NC(C)=C(C(=O)OC(C)C)C1c1cccc([N+](=O)[O-])c1 (stereo not given)",
    "Label Value": "label 0"
  },
  {
    "Compound": "ClC(Cl)=C(c1ccc(Cl)cc1)c1ccc(Cl)cc1",
    "Label Value": "label 0"
  }
]

Could you now look at the following compound, please?
Exercise: I'd appreciate the recorded outcome for CC(=O)O[C@@H]1CC2C(C)(C)C(=O)CC[C@]2(C)C2CC[C@@]3(C)[C@H](c4ccoc4)OC(=O)C4OC43[C@@]21C (stereo not given in full) from this test.
Key: label 0

----------
# Method Notes: chemical genetic growth profiling, strain panel (AID 1159580);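 also: tested at 20 µM; growth read once vehicle control cultures reached saturation at 30 °C; 1 = growth at the plate median or of vehicle wells; lower values mean less growth of the strain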
# Experimental Setup: S. cerevisiae deletion strains, growth OD, locus YML032C, strain rad52
Hit rate of the full screen: of about 5,500 compounds, about 2,000 (36%) were called active. Roughly 18% stayed inconclusive and do not appear here. Cut-off read from the data, not from the text of the source: active = normalized growth mostly below about 0.91 (no sharp cut-off); inconclusive = no clear call, values can overlap the other calls; inactive = mostly above about 0.92. Some of the results follow.
Hello, when you answer, please use one of the following outcomes: Yes = active, No = inactive

[
  {
    "Molecule": "COc1cccc2c1cc([N+](=O)[O-])c1c(C(=O)O)cc3c(c12)OCO3",
    "Label Value": "No"
  },
  {
    "Molecule": "CC(C)c1ccc2c(c1O)CC[C@H]1C3=C(CC[C@]21C)C(=O)OC3",
    "Label Value": "No"
  },
  {
    "Molecule": "CC(=O)Oc1c(-c2ccccc2)oc2c(CC=C(C)C)c3c(c(OC(C)=O)c2c1=O)C=CC(C)(C)O3",
    "Label Value": "Yes"
  },
  {
    "Molecule": "CC(=O)Oc1cc(-c2coc3cc(OC(C)=O)c(OC(C)=O)c(OC(C)=O)c3c2=O)cc(OC(C)=O)c1OC(C)=O",
    "Label Value": "Yes"
  },
  {
    "Molecule": "COc1cc([C@@H]2c3cc4c(cc3C(O[C@@H]3O[C@@H]5CO[C@@H](c6cccs6)OC5[C@H](O)[C@H]3O)C3COC(=O)[C@@H]32)OCO4)cc(OC)c1O (stereo partly specified)",
    "Label Value": "No"
  }
]

Exercise: I'd appreciate the recorded outcome for C=CCCCCCCCCCCCC(O)CC(O)CO (stereo unspecified) from this test.
Key: Yes

Exercise: I'd appreciate the recorded outcome for `CCCCCCCCCCCCCCCC[n+]1ccccc1` from this test.
Key: Yes

Exercise: I'd appreciate the recorded outcome for CC(=O)O[C@@H]1CC2C(C)(C)CCC(=O)[C@]2(C)C2CC[C@@]3(C)[C@H](c4ccoc4)OC(=O)C4OC43[C@@]21C (stereo partly specified) from this test.
Key: No

Exercise: I'd appreciate the recorded outcome for `CN1CCc2c(c3ccccc3n2Cc2ccccc2)C1` from this test.
Key: No

Exercise: I'd appreciate the recorded outcome for CCC1C2CC3C4N(C)c5ccccc5C45CC(C2C5OC(C)=O)N3C1OC(C)=O (stereo unspecified) from this test.
Key: No

Exercise: I'd appreciate the recorded outcome for `COc1cc2cc[n+]3cc4c(OC)c(OC)ccc4cc3c2cc1OC` from this test.
Key: No

----------
# Method Notes: chemical genetic growth profiling, strain panel (AID 1159580);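 also: tested at 20 µM; growth read once vehicle control cultures reached saturation at 30 °C; 1 = growth at the plate median or of vehicle wells; lower values mean less growth of the strain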
# Experimental Setup: S. cerevisiae deletion strains, growth OD, locus YLR221C, strain rsa3, stronger effect = lower value
In all, about 5,500 compounds went through this assay and about 2,000 (36%) were called active. Not shown: some 18% with an inconclusive outcome. The list shows a part of the results.
Item-by-item account of normalized growth
Answer field: number only, no words.

These recorded examples may help you get a feel for the data.
[
  {
    "Compound": "O=c1cc(-c2ccc(O)cc2)oc2ccc(O)cc12",
    "normalized growth": 0.988
  },
  {
    "Compound": "CCC(/C=C/[C@@H](C)[C@H]1CCC2C3CC=C4C[C@@H](O)CC[C@]4(C)C3CC[C@@]21C)C(C)C (stereo not given in full)",
    "normalized growth": 1
  },
  {
    "Compound": "Nc1nnc(-c2cccc(Cl)c2Cl)c(N)n1",
    "normalized growth": 1.02
  },
  {
    "Compound": "CC(=O)O[C@H]1C[C@H](O[C@H]2[C@@H](O)C[C@H](O[C@H]3[C@@H](O)C[C@H](O[C@H]4CC[C@@]5(C)C(CCC6C5C[C@@H](O)[C@]5(C)[C@@H](C7=CC(=O)OC7)CC[C@]65O)C4)O[C@@H]3C)O[C@@H]2C)O[C@H](C)[C@H]1O[C@@H]1O[C@H](CO)[C@@H](O)[C@H](O)[C@H]1O (stereo not given in full)",
    "normalized growth": 1
  }
]

Exercise: Could you share which normalized growth value was measured for `O=C(O)c1cc(=O)c2ccccc2o1` ?
Key: 1

Exercise: Could you share which normalized growth value was measured for [N-]=[N+]=CC(=O)OCC(N)C(=O)O (stereo not given) ?
Key: 0.976
